- System: HS 578T breast
- Assay procedure: NCI tumour cell line growth inhibition, 48 h
Observable: TGI (µM)
# output: bare number, implied unit µM

Would you please look over these solved cases?
Molecule: Nc1ccccc1SC1CC(=O)N(c2ccc(Cl)c(Cl)c2)C1=O (configuration not stated)
Assay result: 49.5

Molecule: O=C(NO)c1ccc(CN(c2cnccn2)c2cnccn2)cc1
Assay result: 96.8

Molecule: CC/C(Cl)=N\OC(=O)Nc1ccc(F)c([N+](=O)[O-])c1
Assay result: 31.7

Molecule: COC(=O)c1cc(/C=C/c2ccc(S(N)(=O)=O)cc2)ccc1O
Assay result: 72.1

Q: Please supply the value of reported TGI for the item COC(=O)C1=C(C)NC(C)=C([N+](=O)[O-])C1c1cccc(N=O)c1 (configuration not stated)
Ans: 39.1

Q: Please supply the value of reported TGI for the item N#CCCN(CCC#N)c1ccc(/C=C2\SC(=S)NC2=O)cc1Br
Ans: 27.1

* * *

- Tested on: SK-MEL-5 melanoma
- Assay procedure: NCI tumour cell line growth inhibition, 48 h
The molecules listed here are annotated with their GI50.

Would you please look over these solved cases?
Molecule: COc1ccc(/C=C(/c2ccccc2)[N+](=O)[O-])cc1
Assay result: 1.82 µM
//
Molecule: CO/N=C(/C)c1cccc(Nc2cc(-c3ccccc3)nc3ccc(OC)cc23)c1
Assay result: 2.63 µM
//
Molecule: N.N.NCCCCCCCCCN.O=C([O-])CC(=O)[O-].O=C([O-])CC(=O)[O-].[Pt+4].[Pt+4]
Assay result: 28.9 µM
//
Molecule: C/C(=N\NC(=S)N1CC2CCC(CC2)C1)c1ccccn1
Assay result: 0.133 µM
//
Molecule: COc1ccc2c(c1)C(C)Cc1c(ncnc1-n1cnc3cc(C)ccc31)N2C (stereo not given)
Assay result: 0.0753 µM
//
Molecule: Cn1c(=O)c2c(ncn2CC(=O)Nc2ccc(-c3ccccc3)nn2)n(C)c1=O
Assay result: 62.6 µM
//
Molecule: Nc1ccccc1SC1CC(=O)N(c2ccc(Cl)c(Cl)c2)C1=O (stereo not given)
Assay result: 21.9 µM
//
Molecule: O=C1CSC(c2ccc(-c3nc4ccccc4s3)cc2)=N1
Assay result: 19.2 µM
//
Molecule: O=C(NCc1ccc(S(=O)(=O)c2cc(F)cc(F)c2)cc1)c1ccc2nccn2c1
Assay result: 2.22 µM

Q: Please supply the value of reported GI50 for the item S=C1SC2=Nc3ccccc3CN2C2=NCCN12
Ans: 14.8 µM

* * *

- Tested on: CCRF-CEM leukemia
- Assay procedure: NCI tumour cell line growth inhibition, 48 h
Observable: TGI (µM)
# output: bare number, implied unit µM

Would you please look over these solved cases?
Structure smiles: Cc1cc(C(C)(C)C)cc(Cc2cc(C(C)(C)C)cc(Cc3cc(C(C)(C)C)cc(C)c3O)c2O)c1O
Output unit: µM
Assay result: 9.04
//
Structure smiles: OCCNCCOc1ccc(/C(=C(/Cl)c2ccccc2)c2ccccc2)cc1
Output unit: µM
Assay result: 9.87

From here, focus on the item given below.
Q: Please supply the value of reported TGI for the item Nc1ccc2[nH]cc(CCC(=O)O)c2c1
Ans: 32.9

* * *

- System: IGROV1 ovarian
- Assay procedure: NCI tumour cell line growth inhibition, 48 h
Observable: TGI (µM)
# output: bare number, implied unit µM

Would you please look over these solved cases?
Molecule: O=C(CSC(c1ccccc1)c1ccccc1)N/N=C/c1ccco1
Assay result: 1.41
--
Molecule: Cc1cccc(C(C)C)c1NC(=O)C(=O)C(C(=O)c1ccccc1F)C1OC(=O)c2ccccc21 (stereo not given)
Assay result: 77.9
--
Molecule: Cc1cc(C(C)(C)C)cc(Cc2cc(C(C)(C)C)cc(Cc3cc(C(C)(C)C)cc(C)c3O)c2O)c1O
Assay result: 23.5

Q: Please supply the value of reported TGI for the item O=[N+]([O-])c1ccc(C2=Nc3ccccc3SC(c3ccccc3)C2)cc1 (stereo not given)
Ans: 33.3

* * *

The compounds listed here are annotated with their TGI.
- Test system: SF-268 CNS
- Assay procedure: NCI tumour cell line growth inhibition, 48 h

Would you please look over these solved cases?
Compound: COC(C(=O)[C@@H](O)[C@@H](C)O)[C@@H]1Cc2cc3cc(O[C@H]4C[C@@H](O[C@H]5C[C@@H](O)[C@H](O)C(C)O5)[C@H](O)C(C)O4)c(C)c(O)c3c(O)c2C(=O)[C@H]1O[C@H]1C[C@@H](O[C@H]2C[C@@H](O[C@H]3C[C@@H](O)[C@H](OC)C(C)O3)[C@@H](O)C(C)O2)[C@H](O)C(C)O1 (stereo partly specified)
Assayed target: SF-268 CNS
TGI: > 33.3 µM
//
Compound: CO/N=C(/C)c1cccc(Nc2cc(-c3ccccc3)nc3ccc(OC)cc23)c1
Assayed target: SF-268 CNS
TGI: 14.1 µM
//
Compound: C[C@]12CC[C@@H]3c4ccc(O)c([N+](=O)[O-])c4CC[C@H]3[C@@H]1CC[C@@H]2NS(=O)(=O)c1cccc(Br)c1
Assayed target: SF-268 CNS
TGI: 10.3 µM

Q: Please supply the value of reported TGI for the item C=C1C(=O)OC2/C=C(/C)C3(O)OC(C)(CC(OC(=O)C(C)C)C12)CC3OC(C)=O (stereo unspecified)
Ans: > 100 µM

Q: Please supply the value of reported TGI for the item COc1cc([C@@H]2c3cc4c(cc3[C@@H](c3c(O)cc(O)c5c3O[C@H](c3ccc(O)c(O)c3)[C@@H](O)C5)[C@H]3COC(=O)[C@H]23)OCO4)cc(OC)c1O
Ans: > 100 µM

Q: Please supply the value of reported TGI for the item N#CC(C(=O)CCC(=O)Nc1cccc(C(F)(F)F)c1)c1ccc(Cl)cc1 (stereo unspecified)
Ans: > 100 µM

* * *

The molecules listed here are annotated with their TGI.
- Test system: PC-3 prostate
- Assay procedure: NCI tumour cell line growth inhibition, 48 h

Would you please look over these solved cases?
Molecule: O=C(OCc1ccc2c(Cl)cc(Cl)c(O)c2n1)N1CCN(C(=O)c2cc3cc(F)ccc3[nH]2)CC1
TGI: > 100 µM

Molecule: N#Cc1c(C#N)c(-c2ccccc2)n(-c2ccccc2)c1N
TGI: > 100 µM

Molecule: CCCCCc1ccc(S(=O)(=O)Nc2cc(-c3csc(NC(C)=O)n3)ccc2N2CCN(C)CC2)cc1
TGI: 7.72 µM

Q: Please supply the value of reported TGI for the item CC(C)CCn1nc(N)c2nc3ccccc3nc21
Ans: > 100 µM

Q: Please supply the value of reported TGI for the item O=C1CS(=O)C23c4cc5ccccc5n4CCC2CCCN13 (stereo unspecified)
Ans: > 100 µM

Q: Please supply the value of reported TGI for the item O=c1[nH]c(=O)n([C@H]2CCCO2)cc1F
Ans: > 5000 µM

* * *

- Tested on: UACC-62 melanoma
- Assay procedure: NCI tumour cell line growth inhibition, 48 h
The compounds listed here are annotated with their TGI.
# output: bare number, implied unit µM

Compound: O=C(NO)c1ccc(CN(c2cnccn2)c2cnccn2)cc1
Assay result: 28.5
//
Compound: O=[N+]([O-])c1ccc(C2=Nc3ccccc3SC(c3ccccc3)C2)cc1 (stereo not given)
Assay result: 27.3
//
Compound: CN(C)CCSc1nccc(-c2cc3ccccc3s2)n1
Assay result: 40.4
//
Compound: Cc1c2ccncc2c(C)c2c1[nH]c1ccccc12
Assay result: 6.02
//
Compound: N#Cc1ccc(OC(=O)Nc2ccc(Cl)c(Cl)c2)cc1
Assay result: 31.7
//
Compound: CC1=C(C(=O)NNS(=O)(=O)c2ccc(C)cc2)CC(C(=O)NNS(=O)(=O)c2ccc(C)cc2)=C(C)N1
Assay result: 47.2
//
Compound: COCOc1ccc(C2(O)Oc3cc(OCOC)ccc3C2C)c(O)c1 (stereo not given)
Assay result: 25.5
//
Compound: CO/N=C(/C)c1cccc(Nc2cc(-c3ccccc3)nc3ccc(OC)cc23)c1
Assay result: 17.7

Q: Provide TGI, recorded with UACC-62 melanoma, of c1csc(-c2c3ccc(=[N+]4CCCCC4)cc-3oc3cc(N4CCCCC4)ccc23)c1
Ans: 0.356

Q: Provide TGI, recorded with UACC-62 melanoma, of COC(=O)[C@H](Cc1ccccc1)NC(=O)c1ccc(CNC(=O)/C=C/c2cccc(Oc3ccccc3)c2)cc1
Ans: 24

* * *

- Tested on: BT-549 breast
- Assay procedure: NCI tumour cell line growth inhibition, 48 h
Observable: TGI (µM)
# output: bare number, implied unit µM

Molecule: CC1=C(C(=O)Nc2ccccc2)C(c2ccc(C3C(C(=O)Nc4ccccc4)=C(C)NC(C)=C3C(=O)Nc3ccccc3)cc2)C(C(=O)Nc2ccccc2)=C(C)N1
Output unit: µM
TGI: 8.67
//
Molecule: OC1(c2ccc(Cl)cc2)c2ccc(CN3CCCC3)cc2C2=NCCN21 (stereo not given)
Output unit: µM
TGI: 21.3
//
Molecule: Nc1nc(Nc2ccccc2)sc1C(=O)c1c[nH]c2ccccc12
Output unit: µM
TGI: 29.8
//
Molecule: C=C1CC[C@@H](C(C)C)C[C@@H]2[C@H]([C@H](O)C[C@]2(C)O)[C@@]2(C)CC[C@@H]1O2
Output unit: µM
TGI: 55.1
//
Molecule: COC(=O)C1(Cc2ccc3c(c2)CCC3)Cc2ccccc2C1=O (stereo not given)
Output unit: µM
TGI: 41.7

From here, focus on the item given below.
Q: Please supply the value of reported TGI for the item Cc1c2ccncc2c(C)c2c1[nH]c1ccccc12
Ans: 3.34
